test: xn = mol fraction of the nth substance listed, in the solute-free solvent; conditions: 313.15 K; x2 = 0.5
solubility (g/100 g solution) reference

> print(dat)
                                   compound  test.result
1  CC(=O)OC(c1ccccc1)C(Cl)(Cl)Cl (stereo not drawn) + CC(=O)O + O         2.97
2  O=C1CCc2ccc(OCCCCN3CCN(c4cccc(Cl)c4Cl)CC3)cc2N1 + CCC(C)=O + CC(C)=O         4.01
3  CC(=O)OC(c1ccccc1)C(Cl)(Cl)Cl (stereo not drawn) + CCO + O          3.4
4  COC1=CC(=O)CC(C)C12Oc1c(Cl)c(OC)cc(OC)c1C2=O (stereo not drawn) + CCC(C)=O + CC(C)O         2.11
5  CCCCOc1ccc(C(=O)CCN2CCCCC2)cc1.Cl + CCO + O         55.3

Ask: Given O=C1CCc2ccc(OCCCCN3CCN(c4cccc(Cl)c4Cl)CC3)cc2N1 + CCC(C)=O + CCCO , state its recorded solubility (g/100 g solution).
Result: 5.82

Ask: Given O=C(O)c1ccc(C(=O)O)o1 + O + COCCOCCOC , state its recorded solubility (g/100 g solution).
Result: 5.58

Ask: Given CCCCOc1ccc(C(=O)CCN2CCCCC2)cc1.Cl + CCO + CCOC(C)=O , state its recorded solubility (g/100 g solution).
Result: 30.8
